- ASSAYED SYSTEM: UniProtKB Q9UM73
- Sequence (Q9UM73 with tags, fused parts or gaps): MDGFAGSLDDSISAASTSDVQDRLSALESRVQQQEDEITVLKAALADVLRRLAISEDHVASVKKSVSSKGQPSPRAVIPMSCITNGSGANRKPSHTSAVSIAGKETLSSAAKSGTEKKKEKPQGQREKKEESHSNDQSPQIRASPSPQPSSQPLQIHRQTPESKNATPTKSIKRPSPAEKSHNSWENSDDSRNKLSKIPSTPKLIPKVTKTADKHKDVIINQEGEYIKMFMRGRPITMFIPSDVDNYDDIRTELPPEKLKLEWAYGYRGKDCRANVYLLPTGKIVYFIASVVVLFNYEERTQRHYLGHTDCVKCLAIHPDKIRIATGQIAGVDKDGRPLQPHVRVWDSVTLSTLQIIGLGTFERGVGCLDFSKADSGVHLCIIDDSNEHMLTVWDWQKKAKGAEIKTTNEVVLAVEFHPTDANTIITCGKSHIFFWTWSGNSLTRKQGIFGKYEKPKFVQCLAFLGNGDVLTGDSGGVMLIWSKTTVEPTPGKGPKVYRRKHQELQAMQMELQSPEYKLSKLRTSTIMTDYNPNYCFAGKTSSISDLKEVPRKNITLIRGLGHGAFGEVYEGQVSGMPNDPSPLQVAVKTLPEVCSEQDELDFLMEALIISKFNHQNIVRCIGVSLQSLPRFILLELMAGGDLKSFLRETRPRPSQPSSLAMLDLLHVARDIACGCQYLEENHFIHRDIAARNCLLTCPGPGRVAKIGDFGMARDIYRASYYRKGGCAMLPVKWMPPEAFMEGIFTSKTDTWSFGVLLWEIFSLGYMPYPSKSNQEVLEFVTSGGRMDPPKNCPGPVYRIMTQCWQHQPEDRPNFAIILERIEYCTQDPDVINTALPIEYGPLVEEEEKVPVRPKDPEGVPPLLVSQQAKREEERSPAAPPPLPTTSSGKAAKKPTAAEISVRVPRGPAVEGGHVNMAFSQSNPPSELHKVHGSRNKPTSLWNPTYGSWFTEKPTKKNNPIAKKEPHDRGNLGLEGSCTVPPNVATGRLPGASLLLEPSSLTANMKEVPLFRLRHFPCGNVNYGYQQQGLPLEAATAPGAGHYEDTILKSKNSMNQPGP
- RUN DESCRIPTION: Western-blot half degradation concentration (DC50) of ALK protein in H3122 cells
- Format: cell-based
- CONDITIONS USED: 24 h drug treatment, read-out: DC50 (nM)/ H3122 cell line
Catalogue of DC50 readings, one per entry.
Numbers only; they are read as nM.

Solved cases (10 shown):
COc1cc(N2CCC(N3CCN(C(=O)CCCCCCSc4cccc5c4C(=O)N(C4CCC(=O)NC4=O)C5=O)CC3)CC2)ccc1Nc1ncc(Cl)c(Nc2ccccc2P(C)(C)=O)n1 (stereo not drawn)    11
CCc1cc2c(cc1N1CCN(C(=O)CCCCSc3cccc4c3C(=O)N(C3CCC(=O)NC3=O)C4=O)CC1)C(C)(C)c1[nH]c3cc(C#N)ccc3c1C2=O (stereo not drawn)    63
COc1cc(N2CCC(N3CCN(C(=O)CCCSc4cccc5c4C(=O)N(C4CCC(=O)NC4=O)C5=O)CC3)CC2)ccc1Nc1ncc(Cl)c(Nc2ccccc2P(C)(C)=O)n1 (stereo not drawn)    49
CCc1cc2c(cc1N1CCN(C(=O)CSc3cccc4c3C(=O)N(C3CCC(=O)NC3=O)C4=O)CC1)C(C)(C)c1[nH]c3cc(C#N)ccc3c1C2=O (stereo not drawn)    104
CCc1cc2c(cc1N1CCN(C(=O)CCCCCSc3cccc4c3C(=O)N(C3CCC(=O)NC3=O)C4=O)CC1)C(C)(C)c1[nH]c3cc(C#N)ccc3c1C2=O (stereo not drawn)    204
COc1cc(N2CCN(C(=O)CSc3cccc4c3C(=O)N(C3CCC(=O)NC3=O)C4=O)CC2)ccc1Nc1ncc(Cl)c(Nc2ccccc2P(C)(C)=O)n1 (stereo not drawn)    100
COc1cc(N2CCC(N3CCN(C(=O)CCSc4cccc5c4C(=O)N(C4CCC(=O)NC4=O)C5=O)CC3)CC2)ccc1Nc1ncc(Cl)c(Nc2ccccc2P(C)(C)=O)n1 (stereo not drawn)    500
COc1cc(N2CCC(NC(=O)CCCCSc3cccc4c3C(=O)N(C3CCC(=O)NC3=O)C4=O)CC2)ccc1Nc1ncc(Cl)c(Nc2ccccc2P(C)(C)=O)n1 (stereo not drawn)    500
COc1cc(N2CCN(C(=O)CCCCSc3cccc4c3C(=O)N(C3CCC(=O)NC3=O)C4=O)CC2)ccc1Nc1ncc(Cl)c(Nc2ccccc2P(C)(C)=O)n1 (stereo not drawn)    500
COc1cc(N2CCN(C(=O)CCCCCSc3cccc4c3C(=O)N(C3CCC(=O)NC3=O)C4=O)CC2)ccc1Nc1ncc(Cl)c(Nc2ccccc2P(C)(C)=O)n1 (stereo not drawn)    500

Now take the following compound into account.
So for COc1cc(N2CCC(N3CCN(C(=O)CCCCSc4cccc5c4C(=O)N(C4CCC(=O)NC4=O)C5=O)CC3)CC2)ccc1Nc1ncc(Cl)c(Nc2ccccc2P(C)(C)=O)n1 (stereo not drawn) , the logged DC50 turned out to be 11
